Readout type: melting point

Molecule | Observed measurement
Cc1nc(Oc2ccccc2)sc1C(=O)N[C@H]1CCC[C@@H]1OCc1ccccc1 | 93.4 to 95.8 °C

Please fill in: melting point reported for COc1ccccc1Nc1nc(C)c(C(=O)N2CCC(c3ccccc3OC)CC2)s1 = 134.5 to 139 °C

Form field melting point, entry COc1ccccc1Nc1nc(C)c(C(=O)NCc2ccccc2SC)s1 : 66.5 °C

So for COc1ccccc1Nc1nc(C)c(C(=O)N2CCc3ccccc3C2)s1 , the logged melting point turned out to be 159.3 to 163.5 °C

====

Molecular target: human Kv4.3 (Homo sapiens)
Construct: expressed in transfected cells; host or cells: transgenic C. elegans strain UG1755 (N2 injected with plasmid pGV8, integrated array)
Sequence (Q9UK17 1-655): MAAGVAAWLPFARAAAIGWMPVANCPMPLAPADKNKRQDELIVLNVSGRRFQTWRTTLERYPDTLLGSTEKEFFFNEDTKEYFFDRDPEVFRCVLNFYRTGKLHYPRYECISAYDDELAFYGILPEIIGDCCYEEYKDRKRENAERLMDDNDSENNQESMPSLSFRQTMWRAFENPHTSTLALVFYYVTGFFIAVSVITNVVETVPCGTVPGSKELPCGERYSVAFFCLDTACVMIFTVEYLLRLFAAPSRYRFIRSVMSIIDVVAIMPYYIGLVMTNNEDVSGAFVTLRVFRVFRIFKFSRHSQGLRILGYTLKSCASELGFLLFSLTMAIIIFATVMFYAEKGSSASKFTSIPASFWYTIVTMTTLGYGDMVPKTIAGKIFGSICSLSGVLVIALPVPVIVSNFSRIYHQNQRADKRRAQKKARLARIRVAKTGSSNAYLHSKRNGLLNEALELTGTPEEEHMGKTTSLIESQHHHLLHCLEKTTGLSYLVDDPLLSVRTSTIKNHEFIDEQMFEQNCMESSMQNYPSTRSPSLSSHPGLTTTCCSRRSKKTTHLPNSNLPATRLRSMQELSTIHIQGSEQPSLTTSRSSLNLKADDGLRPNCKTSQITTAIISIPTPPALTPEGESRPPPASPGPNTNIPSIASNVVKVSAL
Test: C. elegans based high-throughput screen for Kv4.3 modulators (pharynx pumping, Calcein AM uptake), transgenic strain UG1755
Assay type: in vivo
Details: EC50 on N2 divided by EC50 on the Kv4.3 expressing strain; cut-off 1.8
Readout type: Ratio N2/Kv4.3

Worked examples follow.
Compound | Observed measurement
COc1ccc(Cl)cc1Nc1nc(C(=O)N[C@@H]2CCCC[C@H]2OCc2ccccc2)cs1 [Compound 51] | >1.8
Cc1nc(Nc2ccc(Br)cc2)sc1C(=O)N[C@H](C)c1ccc([N+](=O)[O-])cc1 [Compound 22] | >2.6

The reported value for O=C(N[C@@H]1CCC[C@H]1OCc1ccccc1)c1csc(Nc2ccc(Cl)cc2)n1 [Compound 40] in terms of Ratio N2/Kv4.3 is >2.5

// Ratio N2/Kv4.3 lookup, compound = Cc1nc(Nc2ccc(Br)cc2)sc1C(=O)NCc1cc(C(F)(F)F)cc(C(F)(F)F)c1 [Compound 24] , result: >1.7

Looking up Cc1nc(Nc2ccc(Cl)cc2)sc1C(=O)N[C@@H]1CCC[C@H]1OCc1ccccc1 [Compound 30] , I see its Ratio N2/Kv4.3 listed as >6.4
